B1: library; a variant is named by its letters at N, in order (parent)
chain: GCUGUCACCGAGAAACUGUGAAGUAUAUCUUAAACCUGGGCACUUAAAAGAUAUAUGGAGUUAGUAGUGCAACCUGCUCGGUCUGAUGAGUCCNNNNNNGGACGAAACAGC

# Variants of: B1
# PROTOCOL: normalized RNA/DNA level without ligand (relative to sTRSVctl = 100) (log10 (% of sTRSVctl)); HEK293T; ligand: cyclic di-GMP (c-di-GMP-II aptamer); higher = less ribozyme self-cleavage, higher mRNA level
# CONDITION_LABEL: reporter: mCherry (pCS4076), ligand present: no
QUANTITY: normalized RNA/DNA level without ligand (log10)
No unit in the answer, please; the number alone is enough.

Sample records with normalized RNA/DNA level without ligand (log10):
GCUGUCACCGAGAAACUGUGAAGUAUAUCUUAAACCUGGGCACUUAAAAGAUAUAUGGAGUUAGUAGUGCAACCUGCUCGGUCUGAUGAGUCCUGUGUGGGACGAAACAGC : 1.69
GCUGUCACCGAGAAACUGUGAAGUAUAUCUUAAACCUGGGCACUUAAAAGAUAUAUGGAGUUAGUAGUGCAACCUGCUCGGUCUGAUGAGUCCGUACGGGGACGAAACAGC : 1.62
GCUGUCACCGAGAAACUGUGAAGUAUAUCUUAAACCUGGGCACUUAAAAGAUAUAUGGAGUUAGUAGUGCAACCUGCUCGGUCUGAUGAGUCCCUACUCGGACGAAACAGC : 1.7
GCUGUCACCGAGAAACUGUGAAGUAUAUCUUAAACCUGGGCACUUAAAAGAUAUAUGGAGUUAGUAGUGCAACCUGCUCGGUCUGAUGAGUCCAACCCAGGACGAAACAGC : 1.62
GCUGUCACCGAGAAACUGUGAAGUAUAUCUUAAACCUGGGCACUUAAAAGAUAUAUGGAGUUAGUAGUGCAACCUGCUCGGUCUGAUGAGUCCAACUAGGGACGAAACAGC : 1.62
GCUGUCACCGAGAAACUGUGAAGUAUAUCUUAAACCUGGGCACUUAAAAGAUAUAUGGAGUUAGUAGUGCAACCUGCUCGGUCUGAUGAGUCCAAUACAGGACGAAACAGC : 1.56

Give the reported normalized RNA/DNA level without ligand (log10) for this variant. GCUGUCACCGAGAAACUGUGAAGUAUAUCUUAAACCUGGGCACUUAAAAGAUAUAUGGAGUUAGUAGUGCAACCUGCUCGGUCUGAUGAGUCCACUAUUGGACGAAACAGC
1.5

Quote normalized RNA/DNA level without ligand (log10) reported for GCUGUCACCGAGAAACUGUGAAGUAUAUCUUAAACCUGGGCACUUAAAAGAUAUAUGGAGUUAGUAGUGCAACCUGCUCGGUCUGAUGAGUCCAGAGAGGGACGAAACAGC please.
1.46

Provide one value: measured normalized RNA/DNA level without ligand (log10) of GCUGUCACCGAGAAACUGUGAAGUAUAUCUUAAACCUGGGCACUUAAAAGAUAUAUGGAGUUAGUAGUGCAACCUGCUCGGUCUGAUGAGUCCAUCAGUGGACGAAACAGC
1.67

# return recorded normalized RNA/DNA level without ligand (log10) for input GCUGUCACCGAGAAACUGUGAAGUAUAUCUUAAACCUGGGCACUUAAAAGAUAUAUGGAGUUAGUAGUGCAACCUGCUCGGUCUGAUGAGUCCCUAUUCGGACGAAACAGC
1.7

Supply reported normalized RNA/DNA level without ligand (log10) belonging to this variant: GCUGUCACCGAGAAACUGUGAAGUAUAUCUUAAACCUGGGCACUUAAAAGAUAUAUGGAGUUAGUAGUGCAACCUGCUCGGUCUGAUGAGUCCACGCGAGGACGAAACAGC
1.4

Return value of normalized RNA/DNA level without ligand (log10) for input GCUGUCACCGAGAAACUGUGAAGUAUAUCUUAAACCUGGGCACUUAAAAGAUAUAUGGAGUUAGUAGUGCAACCUGCUCGGUCUGAUGAGUCCGGCAAAGGACGAAACAGC , no commentary.
1.55

Answer with the recorded normalized RNA/DNA level without ligand (log10) for the variant listed here: GCUGUCACCGAGAAACUGUGAAGUAUAUCUUAAACCUGGGCACUUAAAAGAUAUAUGGAGUUAGUAGUGCAACCUGCUCGGUCUGAUGAGUCCCUAGCGGGACGAAACAGC
1.77

Specify measured normalized RNA/DNA level without ligand (log10) for GCUGUCACCGAGAAACUGUGAAGUAUAUCUUAAACCUGGGCACUUAAAAGAUAUAUGGAGUUAGUAGUGCAACCUGCUCGGUCUGAUGAGUCCUCGGUCGGACGAAACAGC .
1.68

Provide normalized RNA/DNA level without ligand (log10) value for the following variant: GCUGUCACCGAGAAACUGUGAAGUAUAUCUUAAACCUGGGCACUUAAAAGAUAUAUGGAGUUAGUAGUGCAACCUGCUCGGUCUGAUGAGUCCCGUGGCGGACGAAACAGC
1.75
